TEST_SYSTEM: human RORγt LBD (Homo sapiens (Human), UniProt P51449)
Sequence (P51449 258-518): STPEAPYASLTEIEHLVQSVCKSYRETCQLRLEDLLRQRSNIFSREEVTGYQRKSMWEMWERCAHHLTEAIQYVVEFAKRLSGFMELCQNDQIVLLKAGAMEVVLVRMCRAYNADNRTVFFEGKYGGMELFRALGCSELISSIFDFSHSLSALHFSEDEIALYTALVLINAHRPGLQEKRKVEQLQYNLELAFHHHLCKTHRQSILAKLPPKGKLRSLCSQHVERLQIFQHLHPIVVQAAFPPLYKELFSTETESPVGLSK
ASSAY_METHOD_TEXT: RORγt reporter assay (GAL4-RORγt LBD luciferase, HEK293T cells)
Format: cell-based
DETAILS: 6 μM, HEK293T cells
Description: A reporter assay was used to test functional activity of RORγt modulatory compounds on transcriptional activation driven by the RORγt LBD. Cells used in the assay were co-transfected with two constructs. The first construct, pBIND-RORγt LBD, contained the wild type human RORγt LBD fused to the DNA binding domain of the GAL4 protein. The second construct, pGL4.31 (Promega Cat no. C935A), contained multiple GAL4 responsive DNA elements upstream of firefly luciferase. […]
READOUT_TYPE: RORγt reporter Assay, % inhibition @ 6 μM (%)

{"COMPOUND": "CCOc1nc2ccc(C(O)(c3ccc(C(F)(F)F)nc3)c3cncn3C)cc2c(C(F)(F)F)c1Oc1ccc(Cl)cc1 (single isomer, unassigned) [Example 25b]", "MEASURED": 92}
{"COMPOUND": "CCOc1nc2ccc(C(O)(c3ccc(Cl)cc3)c3cncn3C)cc2c(Cl)c1Oc1ccccc1 (single isomer, unassigned) [Example 2c]", "MEASURED": 92}
{"COMPOUND": "Cn1cncc1C(O)(c1ccc(C(F)(F)F)nc1)c1ccc2nc(C#N)c(Oc3ccccc3)c(C#N)c2c1 (single isomer, unassigned) [Example 22c]", "MEASURED": 88}
